Form field: tissue uptake dose at 10 min (one value per entry).
EXPERIMENT SUMMARY: Biodistribution experiments in normal mice after i.v. injection
Assay type: in vivo
TEST PARAMETERS: male, ddY, mouse, in vivo, iv, total radioactivity, Biodistribution of radioactivity, Lung
Where a SMILES comes first, the peptide text is derived from it. [ ]: non-standard residue; d: D form. The star is where a group is joined. DOTA = O=C(O)CN1CCN(CC(=O)O)CCN(CC(=O)*)CCN(CC(=O)O)CC1
// return numeric value only (unit: %ID, not printed)

O=C(O)CC[C@H](NC(=O)[C@H](CCC(=O)O)NC(=O)[C@H](CCC(=O)O)NC(=O)[C@H](CCC(=O)O)NC(=O)[C@H](CCC(=O)O)NC(=O)[C@H](CCC(=O)O)NC(=O)[C@H](CCC(=O)O)NC(=O)[C@H](CCC(=O)O)NC(=O)[C@H](CCC(=O)O)NC(=O)[C@H](CCC(=O)O)NC(=O)[C@H](CCC(=O)O)NC(=O)[C@H](CCC(=O)O)NC(=O)[C@H](CCC(=O)O)NC(=O)[C@H](CCC(=O)O)NC(=O)CN1CCN(CC(=O)O)CCN(CC(=O)O)CCN(CC(=O)O)CC1)C(=O)O [^67Ga-DOTA-(L-Glu)14, metal not drawn]; 1.57
O=C(O)C[C@@H](NC(=O)[C@@H](CC(=O)O)NC(=O)[C@@H](CC(=O)O)NC(=O)[C@@H](CC(=O)O)NC(=O)[C@@H](CC(=O)O)NC(=O)[C@@H](CC(=O)O)NC(=O)[C@@H](CC(=O)O)NC(=O)[C@@H](CC(=O)O)NC(=O)CN1CCN(CC(=O)O)CCN(CC(=O)O)CCN(CC(=O)O)CC1)C(=O)O [^67Ga-DOTA-(D-Asp)8, metal not drawn] ({DOTA}-[dD][dD][dD][dD][dD][dD][dD][dD]-OH); 1.34
O=C(O)CC[C@@H](NC(=O)[C@@H](CCC(=O)O)NC(=O)[C@@H](CCC(=O)O)NC(=O)[C@@H](CCC(=O)O)NC(=O)[C@@H](CCC(=O)O)NC(=O)[C@@H](CCC(=O)O)NC(=O)[C@@H](CCC(=O)O)NC(=O)[C@@H](CCC(=O)O)NC(=O)[C@@H](CCC(=O)O)NC(=O)[C@@H](CCC(=O)O)NC(=O)[C@@H](CCC(=O)O)NC(=O)[C@@H](CCC(=O)O)NC(=O)[C@@H](CCC(=O)O)NC(=O)[C@@H](CCC(=O)O)NC(=O)CN1CCN(CC(=O)O)CCN(CC(=O)O)CCN(CC(=O)O)CC1)C(=O)O [^67Ga-DOTA-(D-Glu)14, metal not drawn]; 1.65

Notebook: O=C(O)C[C@@H](NC(=O)[C@@H](CC(=O)O)NC(=O)[C@@H](CC(=O)O)NC(=O)[C@@H](CC(=O)O)NC(=O)[C@@H](CC(=O)O)NC(=O)CN1CCN(CC(=O)O)CCN(CC(=O)O)CCN(CC(=O)O)CC1)C(=O)O [^67Ga-DOTA-(D-Asp)5, metal not drawn] ({DOTA}-[dD][dD][dD][dD][dD]-OH) , tissue uptake dose at 10 min read as 2.03

Short answer for O=C(O)C[C@@H](NC(=O)[C@@H](CC(=O)O)NC(=O)CN1CCN(CC(=O)O)CCN(CC(=O)O)CCN(CC(=O)O)CC1)C(=O)O [^67Ga-DOTA-(D-Asp)2, metal not drawn] ({DOTA}-[dD]-[dD]-OH) : tissue uptake dose at 10 min was 1.45

---

EXPERIMENT SUMMARY: Biodistribution experiments in normal mice after i.v. injection
Assay type: in vivo
TEST PARAMETERS: male, ddY, mouse, in vivo, iv, total radioactivity, Biodistribution of radioactivity, Large-intestine
Where a SMILES comes first, the peptide text is derived from it. [ ]: non-standard residue; d: D form. The star is where a group is joined. DOTA = O=C(O)CN1CCN(CC(=O)O)CCN(CC(=O)*)CCN(CC(=O)O)CC1
In this section, each of the compounds is paired with its reported tissue uptake dose at 3 h.
Report as a plain number; the unit %ID is understood.

O=C(O)C[C@@H](NC(=O)[C@@H](CC(=O)O)NC(=O)[C@@H](CC(=O)O)NC(=O)[C@@H](CC(=O)O)NC(=O)[C@@H](CC(=O)O)NC(=O)CN1CCN(CC(=O)O)CCN(CC(=O)O)CCN(CC(=O)O)CC1)C(=O)O [^67Ga-DOTA-(D-Asp)5, metal not drawn] ({DOTA}-[dD][dD][dD][dD][dD]-OH); 0.22

get_value(item= O=C(O)CC[C@H](NC(=O)[C@H](CCC(=O)O)NC(=O)[C@H](CCC(=O)O)NC(=O)[C@H](CCC(=O)O)NC(=O)[C@H](CCC(=O)O)NC(=O)[C@H](CCC(=O)O)NC(=O)[C@H](CCC(=O)O)NC(=O)[C@H](CCC(=O)O)NC(=O)[C@H](CCC(=O)O)NC(=O)[C@H](CCC(=O)O)NC(=O)[C@H](CCC(=O)O)NC(=O)[C@H](CCC(=O)O)NC(=O)[C@H](CCC(=O)O)NC(=O)[C@H](CCC(=O)O)NC(=O)CN1CCN(CC(=O)O)CCN(CC(=O)O)CCN(CC(=O)O)CC1)C(=O)O [^67Ga-DOTA-(L-Glu)14, metal not drawn] , readout=tissue uptake dose at 3 h) returns 0.23

Note to self: tissue uptake dose at 3 h recorded for O=C(O)C[C@@H](NC(=O)[C@@H](CC(=O)O)NC(=O)CN1CCN(CC(=O)O)CCN(CC(=O)O)CCN(CC(=O)O)CC1)C(=O)O [^67Ga-DOTA-(D-Asp)2, metal not drawn] ({DOTA}-[dD]-[dD]-OH) was 0.38

Record O=C(O)CC[C@@H](NC(=O)[C@@H](CCC(=O)O)NC(=O)[C@@H](CCC(=O)O)NC(=O)[C@@H](CCC(=O)O)NC(=O)[C@@H](CCC(=O)O)NC(=O)[C@@H](CCC(=O)O)NC(=O)[C@@H](CCC(=O)O)NC(=O)[C@@H](CCC(=O)O)NC(=O)[C@@H](CCC(=O)O)NC(=O)[C@@H](CCC(=O)O)NC(=O)[C@@H](CCC(=O)O)NC(=O)[C@@H](CCC(=O)O)NC(=O)[C@@H](CCC(=O)O)NC(=O)[C@@H](CCC(=O)O)NC(=O)CN1CCN(CC(=O)O)CCN(CC(=O)O)CCN(CC(=O)O)CC1)C(=O)O [^67Ga-DOTA-(D-Glu)14, metal not drawn] . Reported tissue uptake dose at 3 h: 0.25

---

EXPERIMENT SUMMARY: Biodistribution experiments in normal mice after i.v. injection
Format: in vivo
TEST PARAMETERS: male, ddY, mouse, in vivo, iv, total radioactivity, mice, i.v., 180 min after injection, mean (SD); read-out: Biodistribution of radioactivity, Heart
Where a SMILES comes first, the peptide text is derived from it. [ ]: non-standard residue; d: D form. The star is where a group is joined. DOTA = O=C(O)CN1CCN(CC(=O)O)CCN(CC(=O)*)CCN(CC(=O)O)CC1
METRIC: tissue uptake dose at 3 h (%ID)
Provide only the numeric value, understood in %ID.

O=C(O)C[C@@H](NC(=O)[C@@H](CC(=O)O)NC(=O)[C@@H](CC(=O)O)NC(=O)[C@@H](CC(=O)O)NC(=O)[C@@H](CC(=O)O)NC(=O)[C@@H](CC(=O)O)NC(=O)[C@@H](CC(=O)O)NC(=O)[C@@H](CC(=O)O)NC(=O)[C@@H](CC(=O)O)NC(=O)[C@@H](CC(=O)O)NC(=O)[C@@H](CC(=O)O)NC(=O)CN1CCN(CC(=O)O)CCN(CC(=O)O)CCN(CC(=O)O)CC1)C(=O)O [^67Ga-DOTA-(D-Asp)11, metal not drawn] ({DOTA}-[dD][dD][dD][dD][dD][dD][dD][dD][dD][dD][dD]-OH) has a reported tissue uptake dose at 3 h of 0.03

---

EXPERIMENT SUMMARY: Biodistribution experiments in normal mice after i.v. injection
Assay type: in vivo
TEST PARAMETERS: male, ddY, mouse, in vivo, iv, total radioactivity, mice, i.v., 10 min after injection, mean (SD); read-out: Biodistribution of radioactivity, Kidney
Where a SMILES comes first, the peptide text is derived from it. [ ]: non-standard residue; d: D form. The star is where a group is joined. DOTA = O=C(O)CN1CCN(CC(=O)O)CCN(CC(=O)*)CCN(CC(=O)O)CC1
METRIC: tissue uptake dose at 10 min (%ID)
Record the value in %ID, omitting the unit from your answer.

Reported tissue uptake dose at 10 min for O=C(O)C[C@@H](NC(=O)[C@@H](CC(=O)O)NC(=O)[C@@H](CC(=O)O)NC(=O)[C@@H](CC(=O)O)NC(=O)[C@@H](CC(=O)O)NC(=O)[C@@H](CC(=O)O)NC(=O)[C@@H](CC(=O)O)NC(=O)[C@@H](CC(=O)O)NC(=O)[C@@H](CC(=O)O)NC(=O)[C@@H](CC(=O)O)NC(=O)[C@@H](CC(=O)O)NC(=O)CN1CCN(CC(=O)O)CCN(CC(=O)O)CCN(CC(=O)O)CC1)C(=O)O [^67Ga-DOTA-(D-Asp)11, metal not drawn] ({DOTA}-[dD][dD][dD][dD][dD][dD][dD][dD][dD][dD][dD]-OH) was 12.8
